This collection of values is drawn from ChEMBL document CHEMBL4004822.

Target: NAD-dependent protein deacetylase sirtuin-2 (Homo sapiens) (UniProt Q8IXJ6)
Sequence (Q8IXJ6 whole entry, the tested form may be a part): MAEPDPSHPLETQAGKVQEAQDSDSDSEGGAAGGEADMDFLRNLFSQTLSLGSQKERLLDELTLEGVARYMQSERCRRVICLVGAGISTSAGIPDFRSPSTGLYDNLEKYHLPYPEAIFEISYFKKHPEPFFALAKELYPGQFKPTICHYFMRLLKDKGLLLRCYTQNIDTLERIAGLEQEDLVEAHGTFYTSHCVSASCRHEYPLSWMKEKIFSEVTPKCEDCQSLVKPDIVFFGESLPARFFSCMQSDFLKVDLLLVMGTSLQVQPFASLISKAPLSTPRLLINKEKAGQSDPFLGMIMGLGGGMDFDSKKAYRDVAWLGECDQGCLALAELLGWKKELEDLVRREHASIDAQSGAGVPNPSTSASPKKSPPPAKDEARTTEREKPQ
Test: Inhibition of recombinant human C-terminal His-tagged SIRT2 (50 to 389 end residues) expressed in Escherichia coli at 10 uM using p53 derived (379 to 382 residues) fluorogenic peptide substrate RHKK(Ac)-AMC preincubated for 10 mins followed by substrate addition in presence of NAD+ by fluorescence assay relative to control
property: inhibition
Kindly write the number and append the unit.

O=c1c2c3c(sc2ncn1Cc1cccc2ccccc12)CC(NCc1ccccc1Cl)CC3 (centres undefined); 46%
O=c1c2c3c(sc2ncn1Cc1ccc2ccccc2c1)CC(NCCc1ccncc1)CC3 (centres undefined); 72%
O=c1c2c3c(sc2ncn1Cc1ccc2ccccc2c1)CC(NCc1ccccc1Cl)CC3 (centres undefined); 43%
COc1cccc(Cn2cnc3sc4c(c3c2=O)CCC(NCc2cccnc2)C4)c1 (centres undefined); 27%
O=c1c2c3c(sc2ncn1Cc1ccc2ccccc2c1)CC(NC1CCc2ccccc21)CC3 (centres undefined); 60%
Cc1ccc(NC2CCc3c(sc4ncn(Cc5cccc6cccnc56)c(=O)c34)C2)cc1 (centres undefined); 78%
COc1ccccc1CNC1CCc2c(sc3ncn(Cc4ccc5ccccc5c4)c(=O)c23)C1 (centres undefined); 75%
COc1ccc(Cn2cnc3sc4c(c3c2=O)CCC(Nc2ccc(F)cc2)C4)c2ccccc12 (centres undefined); 56%

Prompt line: Please give the measured inhibition for this compound: COc1ccc(Cn2cnc3sc4c(c3c2=O)CCC(NCc2c(C)noc2C)C4)c2ccccc12 (centres undefined)
Response line: 96%

Prompt line: Ok, now COc1ccccc1NC1CCc2c(sc3ncn(Cc4ccc5ccccc5c4)c(=O)c23)C1 (centres undefined)
Response line: 36%

Prompt line: Ok, now COc1ccc(CNC2CCc3c(sc4ncn(Cc5c(OC)ccc6ccccc56)c(=O)c34)C2)cc1 (centres undefined)
Response line: 96%

Prompt line: Ok, now COc1ccc(NC2CCc3c(sc4ncn(Cc5ccc(OC)c6ccccc56)c(=O)c34)C2)cc1 (centres undefined)
Response line: 41%

Prompt line: Ok, now Cc1ccc(NC2CCc3c(sc4ncn(Cc5ccc6ccccc6c5)c(=O)c34)C2)cc1 (centres undefined)
Response line: 29%

Prompt line: Ok, now COc1cccc(CNC2CCc3c(sc4ncn(Cc5ccc6ccccc6c5)c(=O)c34)C2)c1 (centres undefined)
Response line: 51%

Prompt line: Ok, now COc1ccccc1Cn1cnc2sc3c(c2c1=O)CCC(NCc1ccncc1)C3 (centres undefined)
Response line: 64%

Prompt line: Ok, now COc1ccc2ccccc2c1Cn1cnc2sc3c(c2c1=O)CCC(Nc1cccc(C)c1)C3 (centres undefined)
Response line: 27%

###

IC50 values, listed per item
Molecular target: UniProt:Q8IXJ6
Assay: Inhibition of recombinant human C-terminal His-tagged SIRT2 (50 to 389 end residues) expressed in Escherichia coli using p53 derived (379 to 382 residues) fluorogenic peptide substrate RHKK(Ac)-AMC preincubated for 10 mins followed by substrate addition in presence of NAD+ by fluorescence assay
State the answer as a number, implicitly in µM.

Answered examples (6):
O=c1c2c3c(sc2ncn1Cc1cccc(-c2ccccc2)c1)CC(NC1CCCC1)CC3 (centres undefined); 1.52
COc1ccccc1Cn1cnc2sc3c(c2c1=O)CCC(NCC1CCCCC1)C3 (centres undefined); 9.18
O=c1c2c3c(sc2ncn1Cc1ccc2ccccc2c1)CC(NCC1CCCCC1)CC3 (centres undefined); 5.53
O=c1c2c3c(sc2ncn1Cc1cccc(-c2ccccc2)c1)CC(NCC1CCOC1)CC3 (centres undefined); 2.58
O=c1c2c3c(sc2ncn1Cc1cccc2ccccc12)CC(NCc1ccncc1)CC3 (centres undefined); 3.58
O=c1c2c3c(sc2ncn1Cc1cccc2cccnc12)CC(NCc1ccccc1Cl)CC3 (centres undefined); 3.8

Prompt line: Please give the measured IC50 for this compound: COc1ccc2ccccc2c1Cn1cnc2sc3c(c2c1=O)CCC(NCc1c(C)nn(C)c1C)C3 (centres undefined)
Response line: 5.11

Prompt line: Ok, now COc1ccccc1CNC1CCc2c(sc3ncn(Cc4ccccc4OC)c(=O)c23)C1 (centres undefined)
Response line: 9.59

Prompt line: Ok, now COc1ccc2ccccc2c1Cn1cnc2sc(CCNCc3ccncc3)c(C)c2c1=O
Response line: 2.93

Prompt line: Ok, now O=c1c2c3c(sc2ncn1Cc1cccc2ccccc12)CC(NCc1ccccn1)CC3 (centres undefined)
Response line: 7.68

Prompt line: Ok, now O=c1c2c3c(sc2ncn1Cc1ccc2ccccc2c1)CC(NCc1ccco1)CC3 (centres undefined)
Response line: 11.7

Prompt line: Ok, now COc1ccccc1CNC1CCc2c(sc3ncn(Cc4ccc5ccccc5c4)c(=O)c23)C1 (centres undefined)
Response line: 4.22

Prompt line: Ok, now Cc1nn(C)c(C)c1CNC1CCc2c(sc3ncn(Cc4ccc5ccccc5c4)c(=O)c23)C1 (centres undefined)
Response line: 7.43

Prompt line: Ok, now O=c1c2c3c(sc2ncn1Cc1cccc(-c2ccccc2)c1)CC(NCCN1CCOCC1)CC3 (centres undefined)
Response line: 3.14
